Assignment: determine reported pIC50 for the given molecules.
- System: p-IKKa levels in L363 (NIK translocated multiple myeloma) cells
- measurement notes: Effect of compounds on p-IKKa levels in L363 (NIK translocated multiple myeloma) cells (AlphaLISA SureFire Ultra p-IKKa Ser176/180)
- Type: cell-based, human
- test settings: Homo sapiens, L-363, p-IKKa levels in L363 cells; average if tested more than once; read-out: Assay 2 IC50
- Experimental: Assay 2: Effect of Compounds on p-IKKa Levels in L363 (NIK Translocated Multiple Myeloma) Cells All compounds tested were dissolved and serially diluted in DMSO, 1:3 dilution for 11 points in an Echo compatible plate. 100% DMSO was added to columns 12 and 24 of the plate to serve as high and low signal controls. This compound plate was used to spot 20 nL of compound or DMSO into a Greiner 384 well TC plate (781080). The final DMSO concentration was 0.3% (v/v) in cell assays. […]
pIC50: −log10 of the molar value.

Worked cases, answers included:
> print(dat)
                                   molecule  result
1  CN1CC[C@@](O)(c2cccc(-c3nc(-c4ccnc(NCc5cnccn5)n4)cs3)c2)C1=O  < 6.30
2  COCCn1cc(Nc2nccc(-c3nc(-c4cccc([C@]5(O)CCN(C)C5=O)c4)cs3)n2)cn1  > 7.00
3  COc1nn(C)cc1Nc1nccc(-c2csc(-c3cccc([C@]4(O)CCN(C)C4=O)c3)n2)n1  > 7.00
4  Cc1cc(CNc2nccc(-c3csc(-c4cccc([C@]5(O)CCN(C)C5=O)c4)n3)n2)ccn1  < 6.30
5  CN1CC[C@@](O)(c2cccc(-c3nc(-c4ccnc(NCc5ncccn5)n4)cs3)c2)C1=O  < 6.30

Batch of 7 molecules: report pIC50 for each.
1. CC(=O)N1CC[C@H](Nc2nccc(-c3csc(-c4cccc([C@]5(O)CCN(C)C5=O)c4)n3)n2)C1
2. CN1CC[C@@](O)(c2cccc(-c3nc(-c4ccnc(Nc5cc6c(nn5)CCC6)n4)cs3)c2)C1=O
3. CN1CC[C@@](O)(c2cccc(-c3nc(-c4ccnc(NCCc5cnn(C)c5)n4)cs3)c2)C1=O
4. Cc1nn(C)cc1Nc1nccc(-c2csc(-c3cccc([C@]4(O)CCN(C)C4=O)c3)n2)n1
5. CN1CC[C@@](O)(c2cccc(-c3nc(-c4ccnc(N[C@H]5CCC[C@@H]5O)n4)cs3)c2)C1=O
6. CN1CC[C@@](O)(c2cncc(-c3ccn(-c4ccnc(Nc5ccn(C)n5)n4)n3)c2)C1=O (single isomer, unassigned)
7. CN1CC[C@@](O)(c2cccc(-c3nc(-c4ccnc(NCCCN5CCOCC5)n4)cs3)c2)C1=O

Marked response:
1. < 6.30
2. < 6.30
3. < 6.30
4. > 7.00
5. < 6.30
6. 6.30 to 7.00
7. < 6.30

* * *

- measurement target: Recombinant Human NF-kappaB-Inducing Kinase (NIK/MAP3K14) (Homo sapiens)
- Sequence (Q99558 whole entry): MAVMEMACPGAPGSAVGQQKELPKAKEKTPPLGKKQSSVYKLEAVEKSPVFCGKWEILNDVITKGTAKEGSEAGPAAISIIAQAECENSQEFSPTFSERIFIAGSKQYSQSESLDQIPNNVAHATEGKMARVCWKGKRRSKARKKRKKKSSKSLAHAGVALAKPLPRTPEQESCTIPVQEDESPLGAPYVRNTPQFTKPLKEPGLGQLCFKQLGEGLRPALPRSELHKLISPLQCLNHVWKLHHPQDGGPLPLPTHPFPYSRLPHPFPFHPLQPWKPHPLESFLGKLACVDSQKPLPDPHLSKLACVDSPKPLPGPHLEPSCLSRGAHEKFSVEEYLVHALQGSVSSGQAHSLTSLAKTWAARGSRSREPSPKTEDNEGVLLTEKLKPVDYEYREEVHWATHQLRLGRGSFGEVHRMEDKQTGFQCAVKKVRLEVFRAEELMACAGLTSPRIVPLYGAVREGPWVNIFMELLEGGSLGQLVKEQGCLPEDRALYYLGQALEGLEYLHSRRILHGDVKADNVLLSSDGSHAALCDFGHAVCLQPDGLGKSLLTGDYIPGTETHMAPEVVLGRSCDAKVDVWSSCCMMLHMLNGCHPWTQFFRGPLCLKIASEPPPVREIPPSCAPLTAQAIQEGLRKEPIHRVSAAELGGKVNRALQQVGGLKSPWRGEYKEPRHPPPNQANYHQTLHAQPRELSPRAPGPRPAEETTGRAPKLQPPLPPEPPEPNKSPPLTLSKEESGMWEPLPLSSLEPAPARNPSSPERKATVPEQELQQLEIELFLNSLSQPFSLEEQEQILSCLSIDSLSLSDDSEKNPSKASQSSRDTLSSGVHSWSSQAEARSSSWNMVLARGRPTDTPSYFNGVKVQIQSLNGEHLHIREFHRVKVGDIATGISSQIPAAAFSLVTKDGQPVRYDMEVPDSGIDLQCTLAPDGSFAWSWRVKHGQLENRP
- measurement notes: Inhibition of auto-phosphorylation of recombinant human NIK/MAP3K14 activity (AlphaScreen)
- test settings: 5 μM ATP, 1 nM NIK, average if tested more than once
- Experimental: Assay 1: Inhibition of Auto-Phosphorylation of Recombinant Human NF-kappaB-Inducing Kinase (NIK/MAP3K14) Activity (AlphaScreen™) NIK/MAP3K14 auto-phosphorylation activity was measured using the AlphaScreen™ (αscreen) format (Perkin Elmer). […] Protein A Acceptor and Glutathione-Donor beads were added before reading using an EnVision Multilabel Plate Reader (Perkin Elmer). […] IC50's were determined by fitting a sigmoidal curve to % inhibition of control versus Log10 compound concentration.
result type: IC50

Worked cases, answers included:
> print(dat)
                                   compound  result.type    result
1  CCn1cc(Nc2nccc(-c3csc(-c4cccc([C@]5(O)CCN(C)C5=O)c4)n3)n2)c(OC)n1 [Example 103]         IC50  < 100 nM
2  CN1CC[C@@](O)(c2cccc(-c3csc(-c4ccnc(Nc5ccnn5C)n4)n3)c2)C1=O [Example 5]         IC50  < 100 nM
3  Cc1c(Nc2nccc(-c3csc(-c4cccc([C@]5(O)CCN(C)C5=O)c4)n3)n2)ncn1C [Example 178]         IC50  > 501 nM

Turning now to a further compound:
Exam item: Quick one: IC50 for CN1CC[C@@](O)(c2cccc(-c3nc(-c4ccnc(Nc5ccn(C)n5)n4)cs3)c2)C1=O [Example 56] ?
Marked response: < 100 nM

* * *

- System: p-IKKa levels in L363 (NIK translocated multiple myeloma) cells
- measurement notes: Effect of compounds on p-IKKa levels in L363 (NIK translocated multiple myeloma) cells (AlphaLISA SureFire Ultra p-IKKa Ser176/180)
- Format: cell-based, human
- test settings: Homo sapiens, L-363, p-IKKa levels in L363 cells; average if tested more than once; read-out: Assay 2 IC50
pIC50: −log10 of the molar value.
Assignment: determine reported pIC50 for the given molecules.

> print(dat)
                                   molecule                        measurement.target        result
1  CN1CC[C@@](O)(c2cccc(-c3nc(-c4ccnc(N[C@H]5C[C@H](O)C5)n4)cs3)c2)C1=O  p-IKKa levels in L363 (NIK translocated multiple myeloma) cells        < 6.30
2  COC[C@H](Nc1nccc(-c2nc(-c3cccc([C@]4(O)CCN(C)C4=O)c3)cs2)n1)c1ccnn1C (single isomer, unassigned)  p-IKKa levels in L363 (NIK translocated multiple myeloma) cells  6.30 to 7.00
3  Cc1cc(Nc2nccc(-c3csc(-c4cccc([C@]5(O)CCN(C)C5=O)c4)n3)n2)ncn1  p-IKKa levels in L363 (NIK translocated multiple myeloma) cells        < 6.30
4  CN1CC[C@@](O)(c2cccc(-c3nc(-c4ccnc(Nc5cnc6ccc(F)cn56)n4)cs3)c2)C1=O  p-IKKa levels in L363 (NIK translocated multiple myeloma) cells        < 6.30
5  CN1CC[C@@](O)(c2cccc(-c3nc(-c4ccnc(Nc5cnn(C(F)F)c5)n4)cs3)c2)C1=O  p-IKKa levels in L363 (NIK translocated multiple myeloma) cells  6.30 to 7.00

Batch of 2 molecules: report pIC50 for each.
1. CC(C)n1nccc1Nc1nccc(-c2csc(-c3cccc([C@]4(O)CCN(C)C4=O)c3)n2)n1
2. CN1CC[C@@](O)(c2cccc(-c3nc(-c4ccnc(Nc5cn(C)nc5OCC(F)(F)F)n4)cs3)c2)C1=O

Marked response:
["< 6.30", "> 7.00"]

* * *

Assignment: determine reported IC50 for the given molecules.
- Test system: p-IKKa levels in L363 (NIK translocated multiple myeloma) cells
- measurement notes: Effect of compounds on p-IKKa levels in L363 (NIK translocated multiple myeloma) cells (AlphaLISA SureFire Ultra p-IKKa Ser176/180)
- Assay type: cell-based, human
- test settings: p-IKKa levels in L363 cells; average if tested more than once; read-out: Assay 2 IC50

Worked cases, answers included:
> print(dat)
                                   molecule    result
1  CC(Nc1nccc(-c2nc(-c3cccc(C4(O)CCN(C)C4=O)c3)cs2)n1)c1cnn(C)c1 (single isomer, unassigned) [Example 40]  > 501 nM
2  CN1CC[C@@](O)(c2cccc(-c3nc(-c4ccnc(Nc5cnn(C6CCOC6)c5)n4)cs3)c2)C1=O (single isomer, unassigned)  < 100 nM

Exam item: Quick one: IC50 for CN1CCC(O)(c2ccnc(-c3nc(-c4ccnc(Nc5ccn(C)n5)n4)cs3)c2)C1=O (single isomer, unassigned) [Example 33] ?
Marked response: > 501 nM

* * *

- Test system: p-IKKa levels in L363 (NIK translocated multiple myeloma) cells
- measurement notes: Effect of compounds on p-IKKa levels in L363 (NIK translocated multiple myeloma) cells (AlphaLISA SureFire Ultra p-IKKa Ser176/180)
- Type: cell-based, human
- test settings: Homo sapiens, L-363, p-IKKa levels in L363 cells; average if tested more than once; read-out: Assay 2 IC50
- Protocol: Assay 2: Effect of Compounds on p-IKKa Levels in L363 (NIK Translocated Multiple Myeloma) Cells All compounds tested were dissolved and serially diluted in DMSO, 1:3 dilution for 11 points in an Echo compatible plate. 100% DMSO was added to columns 12 and 24 of the plate to serve as high and low signal controls. This compound plate was used to spot 20 nL of compound or DMSO into a Greiner 384 well TC plate (781080). The final DMSO concentration was 0.3% (v/v) in cell assays. […]
Assignment: determine reported IC50 for the given compounds.

Worked cases, answers included:
> print(dat)
                                   compound         result
1  Cc1cc(Nc2nccc(-c3csc(-c4cccc([C@]5(O)CCN(C)C5=O)c4)n3)n2)nn1C [Example 49]  100 to 500 nM
2  CN1CC[C@@](O)(c2cccc(-c3nc(-c4ccnc(NCCC(F)(F)F)n4)cs3)c2)C1=O [Example 236]       > 501 nM
3  Cc1csc(Nc2nccc(-c3csc(-c4cccc([C@]5(O)CCN(C)C5=O)c4)n3)n2)n1 [Example 247]  100 to 500 nM
4  CN1CC[C@@](O)(c2cccc(-c3nc(-c4ccnc(N[C@@H]5CCCc6cn[nH]c65)n4)cs3)c2)C1=O (single isomer, unassigned) [Example 135]       > 501 nM
5  CN1CC[C@@](O)(c2ccnc(-c3ccn(-c4ccnc(Nc5cnn6ccccc56)n4)n3)c2)C1=O (single isomer, unassigned) [Example 153]       < 100 nM

Exam item: I'm curious: which IC50 was measured for CN1CC[C@@](O)(c2ccnc(-c3ccn(-c4ccnc(Nc5cn(CC(F)F)nc5OC5CC5)n4)n3)c2)C1=O (single isomer, unassigned) [Example 154] tested on p-IKKa levels in L363 (NIK translocated multiple myeloma) cells?
Marked response: < 100 nM
